B1: Cytochrome c-551, P00099 (parent)
chain: MKPYALLSLLATGTLLAQGAWAEDPEVLFKNKGCVACHAIDTKMVGPAYKDVAAKFAGQAGAEAELAQRIKNGSQGVWGPIPMPPNAVSDDEAQTLAKWVLSQK

variants of: B1; conditions: Pseudomonas aeruginosa (strain ATCC 15692 / DSM 22644 / CIP 104116 / JCM 14847 / LMG 12228 / 1C / PRS 101 / PAO1); pH 7; 10 °C; Urea; Fluorescence; sodium phosphate 50 mM; reversible: yes; structure 451C; whole UniProt chain shown
So I've got a bunch of variants here, and I need their ddG of mutation (higher = less stable) values.
# output: number + unit

// fetch ddG of mutation (higher = less stable) given entry MKPYALLSLLATGTLLAQGAWAEDPEVLFKNKGCVACHAIDTKMVGPAYKDVAAKFAGQAGAEAELAQRIKNGSQGVWGPIPMPPNAVSDDVAQTLAKWVLSQK [E92V]
2 kcal/mol

// fetch ddG of mutation (higher = less stable) given entry MKPYALLSLLATGTLLAQGAWAEDPEVLFKNKGCVACHAIDTKMVGPAYKDVAAKFAGQAGAEAELAQRIKNGSQGVWGPIPMPPNAVSDDEAQTLAKFVLSQK [W99F]
1.2 kcal/mol

// fetch ddG of mutation (higher = less stable) given entry MKPYALLSLLATGTLLAQGAWAEDPEVLFKNKGCVACHAIDTKMVGPAYKDVAAKFAGQAGAEAELAQRIKNGSQGVWGPIPMPPNAVSDDQAQTLAKWVLSQK [E92Q]
0.9 kcal/mol

// fetch ddG of mutation (higher = less stable) given entry MKPYALLSLLATGTLLAQGAWAEDPEVLFKNKGCVACHAIDTKMVGPAYKDVAAKFAGQAGAEAELAQRIKNGSQGVFGPIPMPPNAVSDDEAQTLAKWVLSQK [W78F]
1.9 kcal/mol
